target: CDK19/CycC (Homo sapiens); test: LanthaScreen europium kinase binding assay (FRET displacement), CDK19; conditions: CDK19/CDK8 selectivity based on IC50 values
Below, each entry is listed alongside its reported CDK19 Selectivity.
Field format: numeric only.

Known CDK19 Selectivity results, listed for orientation:
# compound, CDK19 Selectivity
data = [
    ("COc1cnccc1Nc1cnc(Nc2ccc(CC(C)C)cc2)nc1C [Compound A25]", 0.9),
    ("COc1cc(Nc2cnc(Nc3cccc(CC(C)C)c3)nc2)ccn1 [Compound A33]", 3),
    ("Cc1cc(-c2cnc(Nc3ccc(CC(C)C)cc3)nc2)ccc1C#N [Compound A91]", 12),
    ("Fc1ccc(Nc2ncc(Oc3ccncc3)cn2)cc1 [Compound A142]", 1),
    ("COc1cc(Nc2cnc(Nc3ccc(CC(C)C)cc3)nc2)ccn1 [Compound A23]", 4.5),
]

CDK19 Selectivity for CC(C)Cc1ccc(Nc2ncc(Nc3cc(F)ncc3F)cn2)cc1 [Compound A175] ?
4

Return reported CDK19 Selectivity; argument: CC(C)Cc1ccc(Nc2ncc(Nc3ccnc(N)c3)cn2)cc1 [Compound A159]
3

====

IC50 for assorted compounds
target: CDK19/CycC (Homo sapiens, UniProt Q9BWU1); assay: LanthaScreen europium kinase binding assay (FRET displacement), CDK19; conditions: his-tagged CDK19/CycC 5 nM, tracer 10 nM, 3 h incubation
Sequence (Q9BWU1 whole entry): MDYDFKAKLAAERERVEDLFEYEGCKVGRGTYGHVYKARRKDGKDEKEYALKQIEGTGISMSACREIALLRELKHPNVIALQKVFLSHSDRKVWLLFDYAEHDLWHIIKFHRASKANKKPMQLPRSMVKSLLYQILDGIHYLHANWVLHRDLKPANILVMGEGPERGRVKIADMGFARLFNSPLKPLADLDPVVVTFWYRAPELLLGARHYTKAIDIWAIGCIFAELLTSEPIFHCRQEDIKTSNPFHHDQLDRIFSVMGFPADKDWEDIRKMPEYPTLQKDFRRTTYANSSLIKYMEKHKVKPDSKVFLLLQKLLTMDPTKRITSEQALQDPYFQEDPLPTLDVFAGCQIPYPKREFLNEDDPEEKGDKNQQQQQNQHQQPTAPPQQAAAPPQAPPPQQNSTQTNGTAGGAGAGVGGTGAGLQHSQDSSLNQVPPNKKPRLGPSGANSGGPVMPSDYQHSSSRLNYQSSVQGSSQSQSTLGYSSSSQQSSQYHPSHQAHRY
Sequence (P24863 whole entry partner): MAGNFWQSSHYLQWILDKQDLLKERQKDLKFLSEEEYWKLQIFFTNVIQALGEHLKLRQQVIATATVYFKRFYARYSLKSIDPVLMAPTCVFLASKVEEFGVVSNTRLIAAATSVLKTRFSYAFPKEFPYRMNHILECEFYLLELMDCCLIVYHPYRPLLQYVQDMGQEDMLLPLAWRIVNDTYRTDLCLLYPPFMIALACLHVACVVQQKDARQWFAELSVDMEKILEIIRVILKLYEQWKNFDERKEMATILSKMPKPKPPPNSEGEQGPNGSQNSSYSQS
Give a bare numeral; the unit nM is implied.

Recorded IC50, per entry:
# compound, target of assay, unit annotation, IC50
rows = [
    ("Cc1cc(-c2cnc(Nc3ccc(CC(C)C)cc3)nc2)ccc1C#N [Compound A91]", "CDK19/CycC (Homo sapiens, UniProt Q9BWU1)", "nM", 798),
    ("CC(C)Cc1ccc(Nc2ncc(Nc3cccnc3)cn2)cc1 [Compound A52]", "CDK19/CycC (Homo sapiens, UniProt Q9BWU1)", "nM", 704),
    ("CC(C)Cc1ccc(Nc2ncc(-c3cccnc3)cn2)cc1 [Compound A87]", "CDK19/CycC (Homo sapiens, UniProt Q9BWU1)", "nM", 84),
    ("O=C(NC1CCCC1)c1cnccc1Nc1cnc(Nc2ccc(C3CCCCC3)cc2)nc1 [Compound A151]", "CDK19/CycC (Homo sapiens, UniProt Q9BWU1)", "nM", 1110),
    ("Cc1ccc(C#N)cc1-c1cnc(Nc2ccc(CC(C)C)cc2)nc1 [Compound A93]", "CDK19/CycC (Homo sapiens, UniProt Q9BWU1)", "nM", 132),
]

# query: IC50 of entry CC(C)Cc1ccc(Nc2ncc(Nc3ccncc3OC3CCCC3(C)C)cn2)cc1 (centres unmarked) [Compound A157]
67

Record request: IC50 value, item c1cc(Nc2cnc(Nc3ccc(C4CC4)cc3)nc2)ccn1 [Compound A16]
133

GET /values?readout=IC50&item= c1cc(Nc2cnc(Nc3ccc(C4CCCCC4)cc3)nc2)c(OC2CCCC2)cn1 [Compound A1]
69

Fill in: IC50 of Cc1cc(C#N)ccc1-c1cnc(Nc2ccc(CC(C)C)cc2)nc1 [Compound A90] is ___
1060

Which IC50 value is on record for CC(C)Cc1ccc(Nc2ccc(C(=O)c3cccnc3)cn2)cc1 [Compound A200] ?
1340

Dear colleague, I am looking for the recorded IC50 of the following compound: CC(C)Cc1ccc(Nc2ncc(S(=O)(=O)c3ccncc3)cn2)cc1 [Compound A152]
1060

Requested field: IC50. Item: CCCc1ccc(Nc2ncc(Nc3ccnc(C)c3)cn2)cc1 [Compound A10]
99

Look up IC50: O=C(c1ccncc1)c1cnc(Nc2ccc(F)cc2)nc1 [Compound A69]
1410

Fill in: IC50 of COc1cc(Nc2cnc(Nc3ccc(CC(C)C)cc3)nc2)ccn1 [Compound A23] is ___
100

====

target: CDK19/CycC (Homo sapiens, UniProt Q9BWU1); test: LanthaScreen europium kinase binding assay (FRET displacement), CDK19; conditions: CDK19/CDK8 selectivity based on IC50 values
measure: CDK19 Selectivity
Would you mind answering with just the numeric figure?

Here are 10 compounds together with their reported answers.
# compound, target of assay, measure, observed result
data = [
    ("CC(C)Cc1ccc(Nc2ccc(C(=O)c3ccncc3F)cn2)cc1", "CDK19/CycC (Homo sapiens, UniProt Q9BWU1)", "CDK19 Selectivity", 5),
    ("Cc1cc(CC(C)C)ccc1Nc1ncc(C(=O)c2ccncc2OC2CCCC2)cn1", "CDK19/CycC (Homo sapiens, UniProt Q9BWU1)", "CDK19 Selectivity", 2),
    ("CC(C)Cc1ccc(Nc2ncc(NC(=O)c3ccncc3)cn2)cc1", "CDK19/CycC (Homo sapiens, UniProt Q9BWU1)", "CDK19 Selectivity", 5.3),
    ("CC(C)Cc1ccc(Nc2ncc(-c3cc[nH]c(=O)c3)cn2)cc1", "CDK19/CycC (Homo sapiens, UniProt Q9BWU1)", "CDK19 Selectivity", 1),
    ("CC(C)Cc1ccc(Nc2ncc(Nc3ccncc3OC3CCCNC3)cn2)cc1 (stereo not shown)", "CDK19/CycC (Homo sapiens, UniProt Q9BWU1)", "CDK19 Selectivity", 1.1),
    ("CC(C)Cc1ccc(Nc2ncc(C(=O)c3ccncc3)cn2)c(F)c1", "CDK19/CycC (Homo sapiens, UniProt Q9BWU1)", "CDK19 Selectivity", 2.4),
    ("Cc1cncc(F)c1Nc1cnc(Nc2ccc(CC(C)C)cc2)nc1", "CDK19/CycC (Homo sapiens, UniProt Q9BWU1)", "CDK19 Selectivity", 1.5),
    ("CC(C)Cc1ccc(Nc2ncc(Nc3ccnc(C(C)C)c3)cn2)cc1", "CDK19/CycC (Homo sapiens, UniProt Q9BWU1)", "CDK19 Selectivity", 4.6),
    ("COc1cc(CC(C)C)ccc1Nc1ncc(Nc2ccncc2)cn1", "CDK19/CycC (Homo sapiens, UniProt Q9BWU1)", "CDK19 Selectivity", 4.2),
    ("CC(C)Cc1ccc(Nc2ncc(Nc3ccncc3C(=O)NC3CCCC3)cn2)cc1", "CDK19/CycC (Homo sapiens, UniProt Q9BWU1)", "CDK19 Selectivity", 1),
]

Look up CDK19 Selectivity with CDK19/CycC (Homo sapiens, UniProt Q9BWU1) for this compound: Cc1cc(C#N)ccc1-c1cnc(Nc2ccc(CC(C)C)cc2)nc1
4.6

So what CDK19 Selectivity did c1cc(Nc2cnc(Nc3ccc(CC4CC4)cc3)nc2)ccn1 get with CDK19/CycC (Homo sapiens, UniProt Q9BWU1)?
2

# query: CDK19 Selectivity | item Cc1cc(Nc2cnc(Nc3ccc(CC(C)C)cc3)nc2)c(F)cn1 | system: CDK19/CycC (Homo sapiens, UniProt Q9BWU1)
4

Test system CDK19/CycC (Homo sapiens, UniProt Q9BWU1); read-out CDK19 Selectivity; what value for Cc1cc(C)cc(-c2cnc(Nc3ccc(CC(C)C)cc3)nc2)c1 ?
2.7

Item CC(C)Cc1ccc(Nc2ncc(C(C)(O)c3ccncc3)cn2)cc1 (stereo not shown) with CDK19/CycC (Homo sapiens, UniProt Q9BWU1) - CDK19 Selectivity?
4

Data credit: patent US20240351996A1
